Origin of values: paper PMC9145196

target: topo IIα (Homo sapiens)
Sequence (P11388 whole entry): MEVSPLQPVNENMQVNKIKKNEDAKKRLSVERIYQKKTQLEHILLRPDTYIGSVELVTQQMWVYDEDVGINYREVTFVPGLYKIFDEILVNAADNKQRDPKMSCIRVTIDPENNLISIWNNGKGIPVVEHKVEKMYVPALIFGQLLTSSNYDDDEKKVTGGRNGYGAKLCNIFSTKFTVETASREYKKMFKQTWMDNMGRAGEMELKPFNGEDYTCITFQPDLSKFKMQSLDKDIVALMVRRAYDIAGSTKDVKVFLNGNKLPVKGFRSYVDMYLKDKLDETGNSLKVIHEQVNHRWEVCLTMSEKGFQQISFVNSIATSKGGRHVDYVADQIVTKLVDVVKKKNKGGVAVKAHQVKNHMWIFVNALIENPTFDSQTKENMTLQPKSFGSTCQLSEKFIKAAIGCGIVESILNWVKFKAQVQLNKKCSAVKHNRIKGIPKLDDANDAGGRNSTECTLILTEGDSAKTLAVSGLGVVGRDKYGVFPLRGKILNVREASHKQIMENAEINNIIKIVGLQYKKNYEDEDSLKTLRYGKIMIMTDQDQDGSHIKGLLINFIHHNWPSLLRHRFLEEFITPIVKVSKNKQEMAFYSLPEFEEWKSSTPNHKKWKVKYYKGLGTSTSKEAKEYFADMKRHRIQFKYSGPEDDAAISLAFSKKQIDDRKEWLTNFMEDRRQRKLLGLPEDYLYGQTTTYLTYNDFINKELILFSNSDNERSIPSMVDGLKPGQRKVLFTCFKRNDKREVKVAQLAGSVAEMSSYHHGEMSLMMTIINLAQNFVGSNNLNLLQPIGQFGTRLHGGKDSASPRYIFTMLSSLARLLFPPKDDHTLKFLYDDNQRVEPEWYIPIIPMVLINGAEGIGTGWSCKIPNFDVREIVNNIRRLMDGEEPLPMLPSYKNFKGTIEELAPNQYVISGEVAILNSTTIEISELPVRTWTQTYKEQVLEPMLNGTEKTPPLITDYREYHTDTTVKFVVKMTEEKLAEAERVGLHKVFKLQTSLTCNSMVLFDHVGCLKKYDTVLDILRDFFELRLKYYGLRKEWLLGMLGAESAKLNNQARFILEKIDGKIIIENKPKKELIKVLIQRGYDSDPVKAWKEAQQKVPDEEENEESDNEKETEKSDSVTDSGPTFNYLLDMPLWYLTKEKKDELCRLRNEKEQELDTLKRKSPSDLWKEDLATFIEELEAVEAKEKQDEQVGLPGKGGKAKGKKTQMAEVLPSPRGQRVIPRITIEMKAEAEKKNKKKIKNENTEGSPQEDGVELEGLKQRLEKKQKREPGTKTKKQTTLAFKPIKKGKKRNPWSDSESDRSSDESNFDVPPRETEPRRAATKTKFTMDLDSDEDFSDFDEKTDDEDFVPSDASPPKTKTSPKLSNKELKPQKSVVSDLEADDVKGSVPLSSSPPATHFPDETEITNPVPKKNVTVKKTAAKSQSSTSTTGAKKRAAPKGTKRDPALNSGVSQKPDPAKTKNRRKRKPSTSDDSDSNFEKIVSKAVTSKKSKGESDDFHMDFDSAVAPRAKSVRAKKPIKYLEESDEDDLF

- substance.smiles: "COC1=C(Br)[C@H](O)[C@](O)(CC#N)C=C1Br"
  IC50 [nM]: 1370
